biological target: rat ASIC1a (Rattus norvegicus, UniProt P55926); experiment: Two-electrode voltage clamp on X. laevis oocytes expressing rat ASIC1a; details: X. laevis oocytes; pH drop 7.4 to 5.5; holding potential −50 mV; mean ± SEM of 5–6; read-out: IC50, inhibition of ASIC1a current
Sequence (P55926 whole entry): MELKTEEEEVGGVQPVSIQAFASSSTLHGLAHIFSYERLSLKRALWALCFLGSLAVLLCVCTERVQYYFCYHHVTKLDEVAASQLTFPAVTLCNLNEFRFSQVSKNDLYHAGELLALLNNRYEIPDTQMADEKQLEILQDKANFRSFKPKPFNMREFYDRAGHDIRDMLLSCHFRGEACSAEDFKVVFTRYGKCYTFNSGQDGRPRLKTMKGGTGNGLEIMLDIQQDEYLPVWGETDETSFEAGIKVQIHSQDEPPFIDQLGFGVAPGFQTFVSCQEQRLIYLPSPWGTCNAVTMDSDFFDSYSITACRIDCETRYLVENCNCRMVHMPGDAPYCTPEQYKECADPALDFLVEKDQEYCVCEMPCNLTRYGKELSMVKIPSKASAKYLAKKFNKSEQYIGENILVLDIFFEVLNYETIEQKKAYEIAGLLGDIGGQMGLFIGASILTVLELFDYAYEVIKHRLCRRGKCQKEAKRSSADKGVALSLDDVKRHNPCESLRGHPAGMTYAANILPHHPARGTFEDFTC
assay-endpoint: IC50 (µM)

[[record]]
compound = "O=C(O)CC(OC(=O)C1=Cc2cc(O)c(O)cc2C(c2ccc(O)c(O)c2)C1C(=O)OC(CC(=O)O)C(=O)O)C(=O)O (stereo not drawn)"
val = 297


I. O=C(O)CC(C(=O)O)C(OC(=O)C1=Cc2cc(O)c(O)cc2C(c2ccc(O)c(O)c2)C1C(=O)OC(C(=O)O)C(CC(=O)O)C(=O)O)C(=O)O (stereo not drawn)
II. O=C(O)C1=Cc2cc(O)c(O)cc2[C@@H](c2ccc(O)c(O)c2)[C@@H]1C(=O)O [EA, epiphyllic acid]
Exercise: Given the listed items, does I or II have the lesser reported IC50? Record your answer as the label of the chosen record.
Key: I
(I: 228 µM, II: 415 µM)

* * *

target: rat ASIC3 (Rattus norvegicus, UniProt O35240); construct: expressed in transfected cells; host or cells: Xenopus laevis oocytes (cRNA injection); test: Two-electrode voltage clamp on X. laevis oocytes expressing rat ASIC3; type: cell-based; settings: X. laevis oocytes; pH drop 7.4 to 5.5; holding potential −50 mV; mean ± SEM of 5–6; read-out: IC50, inhibition of ASIC3 current
Sequence (O35240 whole entry): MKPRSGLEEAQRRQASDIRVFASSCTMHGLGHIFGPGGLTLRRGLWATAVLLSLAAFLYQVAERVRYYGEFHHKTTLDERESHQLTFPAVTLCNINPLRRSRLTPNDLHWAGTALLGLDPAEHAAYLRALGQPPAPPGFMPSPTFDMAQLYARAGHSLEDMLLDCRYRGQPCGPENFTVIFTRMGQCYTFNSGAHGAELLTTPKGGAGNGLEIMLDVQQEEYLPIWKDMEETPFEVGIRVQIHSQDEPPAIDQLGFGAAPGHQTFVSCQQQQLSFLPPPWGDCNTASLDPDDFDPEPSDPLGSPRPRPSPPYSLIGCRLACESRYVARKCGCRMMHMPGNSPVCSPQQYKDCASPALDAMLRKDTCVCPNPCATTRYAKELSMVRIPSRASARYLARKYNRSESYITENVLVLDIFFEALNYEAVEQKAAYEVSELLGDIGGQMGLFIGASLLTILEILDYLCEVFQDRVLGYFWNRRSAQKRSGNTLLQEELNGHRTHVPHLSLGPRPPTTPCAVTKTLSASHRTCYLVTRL
pIC50: −log10 of the molar value.
assay-endpoint: pIC50

[[record]]
compound = "O=C(O)CC(C(=O)O)C(OC(=O)C1=Cc2cc(O)c(O)cc2C(c2ccc(O)c(O)c2)C1C(=O)OC(C(=O)O)C(CC(=O)O)C(=O)O)C(=O)O (stereo not drawn) [sevanol]"
val = 3.76


a. O=C(O)C1=Cc2cc(O)c(O)cc2[C@@H](c2ccc(O)c(O)c2)[C@@H]1C(=O)O [EA, epiphyllic acid]
b. O=C(O)CC(OC(=O)C1=Cc2cc(O)c(O)cc2C(c2ccc(O)c(O)c2)C1C(=O)OC(CC(=O)O)C(=O)O)C(=O)O (stereo not drawn) [s590]
Exercise: Param pair: a , b . Output: the one whose pIC50 is numerically greater. Answer format: the label of the selected item.
Key: b

* * *

Biological target: ASIC1a (Rattus norvegicus, UniProt P55926)
Sequence (P55926 whole entry): as the sequence (P55926 whole entry) above
Assay: Competition of sevanol with FRRFa peptide on ASIC1a current (integral currents)
Settings: integral currents; pH 5.5; 15 s pre-incubation; n = 5; read-out: IC50, ASIC1a inhibition, s706 alone
Protocol: It is known that RF-amide peptides produce a potentiating effect on ASIC1a by inhibiting the channel’s desensitization in the presence of protons (during acidic stimulation). […] Figure 3 Comparison of sevanol (s706) and the Phe-Arg-Arg-Phe-amide peptide (FRRFa) effects on the ASIC1a current. […] (B) Dose–response ASIC1a inhibitory curves for s706 alone (red line) and for s706 in the presence of 200 µM FRRFa (blue line), determined for integral currents. […]
assay-endpoint: pIC50
Reminder that pIC50 means the negative base-10 logarithm of the concentration expressed in mol/L.

Exercise: Checklist item: pIC50 tested on ASIC1a (Rattus norvegicus, UniProt P55926), entry O=C(O)CC(C(=O)O)C(OC(=O)C1=Cc2cc(O)c(O)cc2C(c2ccc(O)c(O)c2)C1C(=O)OC(C(=O)O)C(CC(=O)O)C(=O)O)C(=O)O (stereo not shown) , value?
Key: 3.60
